# SYSTEM: Heat shock protein HSP 90-alpha (Homo sapiens)
# Type: functional, organism-based
Calls of active or inactive are those of the source.
Property: AC50; scope: individual compounds
MEASURED ATTRIBUTE: AC50

In [3]: df
Out[3]:
                                   compound  measured_attribute     endpoint_value
0          COc1cccc(N=Nc2ccc(O)c3ncccc23)c1                AC50   4.01 µM (active)
1  COc1ccc2oc(=O)c(-c3csc(Nc4cccc(O)c4)n3)cc2c1                AC50   7.16 µM (active)
2  CCOc1ccccc1-c1c2cc(O)c(=O)cc-2oc2cc(O)c(O)cc12                AC50   6.24 µM (active)
3       O=C(OCn1ncc(Br)c(Br)c1=O)c1ccccc1Cl                AC50   8.37 µM (active)
4  CCCC(=O)NC(c1ccc2c(c1)OCO2)c1cc(Cl)c2cccnc2c1O (stereo unspecified)                AC50   3.41 µM (active)
5  Cc1ccc(NC(=O)c2cc(N3C(=O)C=CC3=O)ccc2N2CCOCC2)cc1                AC50  0.591 µM (active)

====

This section presents compounds with their documented IC50 values.
# SYSTEM: Beta Lactamase (Pseudomonas aeruginosa)
# Sequence (Q932Y6 whole entry): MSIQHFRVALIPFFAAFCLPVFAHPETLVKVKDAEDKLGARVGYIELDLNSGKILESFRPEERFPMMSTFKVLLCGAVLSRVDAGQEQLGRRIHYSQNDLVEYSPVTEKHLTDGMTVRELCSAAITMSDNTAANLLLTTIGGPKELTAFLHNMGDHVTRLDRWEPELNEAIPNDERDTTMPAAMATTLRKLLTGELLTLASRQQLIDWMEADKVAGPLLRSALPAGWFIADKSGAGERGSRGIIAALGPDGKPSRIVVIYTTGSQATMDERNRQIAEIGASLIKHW
# EXPERIMENT SUMMARY: BLA reporter interference, concentration series – BLA reporter cells, FRET fluorescence, artefact control for TLR9-MyD88 binding inhibitor project, dose response (AID 588341);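 further: cell based assay in CHO-K1 cells stably expressing beta-lactamase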
# Format: cell-based
Calls of active or inactive are those of the source.
MEASURED ATTRIBUTE: IC50

In [3]: df
Out[3]:
                                   compound        endpoint_value
0       O=C(OCn1ncc(Br)c(Br)c1=O)c1ccccc1Cl  > 49.8 µM (inactive)
1    CCn1c(=O)c([N+](=O)[O-])c(Cl)c2ccccc21    28.6 µM (inactive)
2  O=C1C=CC(=O)N1c1ccc2c(c1)C(NC(=O)C(F)(F)F)c1ccccc1-2 (configuration not stated)    14.5 µM (inactive)
3       COc1ccc(OC)c2c1C(=O)C(Cl)=C(Cl)C2=O      6.76 µM (active)
4  CCCC/N=C1\C(=O)N(C)c2cccc3c(O)c4ccccc4c1c23      9.06 µM (active)
5  COc1ccc(OC)c(C=Cc2ccc([N+](=O)[O-])cc2)c1      8.19 µM (active)
6  CC1=C(O)C(=O)C=C2C1=CC=C1C2(C)CCC2(C)C3CC(C)(C(=O)O)CCC3(C)CCC12C (configuration not stated)    21.4 µM (inactive)

====

# SYSTEM: Low molecular weight phosphotyrosine protein phosphatase (Homo sapiens);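 further: Dose-response confirmation assay measuring inhibition of LMPTP enzyme activity by fluorescence intensity read-out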
# Sequence (P24666 whole entry): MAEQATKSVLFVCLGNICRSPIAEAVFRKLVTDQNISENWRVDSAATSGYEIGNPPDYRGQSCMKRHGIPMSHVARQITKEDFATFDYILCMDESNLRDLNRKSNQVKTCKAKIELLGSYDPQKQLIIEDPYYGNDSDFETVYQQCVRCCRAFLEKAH
# Assay type: functional
# TEST SETTINGS: read-out: IC50_Mean
Active and inactive are the calls of the source.
Labels: active, inactive

>>> print(df.to_string())
                                 smiles_str  assigned_category
0  C/C(=N\NC(=O)c1ccccc1O)c1ccc(NC(=O)Cc2ccccc2)cc1             active
1  O=C(NCc1ccc2c(c1)OCO2)c1c(O)nc2sccn2c1=O           inactive
2  O=S(=O)(c1ccccc1)c1nnn2c1nc(NC1CCN(Cc3ccccc3)CC1)c1ccccc12             active
3  CC(C)(C)OC(=O)[C@H](Cc1ccccc1)NC(=O)c1ncn2c1c(O)nc1ccc(Br)cc12             active

Sourced from ChEMBL document CHEMBL1201862
